FYI, the data here is from patent US12102631B2.

Here, each record is paired with measured viability at 100 µM data.
Tested on: primary neuronal cultures from rat cerebral cortex
Test: Neuroprotection (MTT cell viability) in primary neuronal cultures exposed to oxygen-glucose deprivation (OGD)
Assay type: cell-based
Settings: Rattus norvegicus; 100 μM; 24 h recovery after 4 h OGD; R24 h = 0%, control = 100%
The response must be a number in % with no trailing unit.

May I ask what viability at 100 µM has been recorded for COc1ccc(OC)c2nc(Cl)c(/C=[N+](\[O-])Cc3ccccc3)cc12 [Compound 28] ?
44.3

May I ask what viability at 100 µM has been recorded for Cc1ccc2[nH]c(=O)c(/C=[N+](\[O-])Cc3ccccc3)cc2c1 [Compound 13] ?
42

May I ask what viability at 100 µM has been recorded for Cc1ccc2ncc(/C=[N+](\[O-])Cc3ccccc3)cc2c1 [Compound 12] ?
34.4

May I ask what viability at 100 µM has been recorded for COc1ccc2nc(Cl)c(/C=[N+](\[O-])C(C)(C)C)cc2c1 [Compound 23] ?
77.1

May I ask what viability at 100 µM has been recorded for CC(C)(C)/[N+]([O-])=C/c1cc2ccccc2n2nnnc12 [Compound 31] ?
5.83

May I ask what viability at 100 µM has been recorded for Cc1ccc2[nH]c(=O)c(/C=[N+](\[O-])C(C)(C)C)cc2c1 [Compound 17] ?
17.6

May I ask what viability at 100 µM has been recorded for CC(C)(C)/[N+]([O-])=C/c1cc2ccccc2[nH]c1=O [Compound 19] ?
48.8

May I ask what viability at 100 µM has been recorded for COc1ccc2nc(Cl)c(/C=[N+](\[O-])Cc3ccccc3)cc2c1 [Compound 24] ?
38.9

---

Test system: primary neuronal cultures from rat cerebral cortex
Test: Neuroprotection (MTT cell viability) in primary neuronal cultures exposed to oxygen-glucose deprivation (OGD)
Format: cell-based
Conditions: Rattus norvegicus; 250 μM; 24 h recovery after 4 h OGD; R24 h = 0%, control = 100%
Method: Primary neuronal cultures. […] Living cells in cell suspension were counted by trypan blue exclusion method. […] Exposure of cell cultures to oxygen-glucose deprivation and treatments. […] Nitrones were analyzed independently four-eight times with different batch of cultures and each experiment was run in quadruplicate. Cell viability assay. […] Values were quantified by absorbance (test 595 nm, reference 690 nm). […] Neuroprotection of compounds was evaluated by a cell viability assay. […]
PROPERTY: viability at 250 µM

// known answers, use as guide
>  <COMPOUND>
Cc1ccc2nc(Cl)c(/C=[N+](\[O-])c3ccccc3)cc2c1

>  <viability at 250 µM>
1%

$$$$
>  <COMPOUND>
Cc1ccc2ncc(/C=[N+](\[O-])Cc3ccccc3)cc2c1

>  <viability at 250 µM>
34.1%

$$$$
>  <COMPOUND>
[O-]/[N+](=C\c1cc2cc(O)ccc2nc1Cl)Cc1ccccc1

>  <viability at 250 µM>
< 0%

$$$$
>  <COMPOUND>
COc1ccc2nc(Cl)c(/C=[N+](/C)[O-])cc2c1

>  <viability at 250 µM>
< 0%

$$$$
>  <COMPOUND>
CC(C)(C)/[N+]([O-])=C/c1ccc(S(=O)(=O)O)cc1S(=O)(=O)O [Compound 2, reference compound]

>  <viability at 250 µM>
52.9%

$$$$
>  <COMPOUND>
COc1ccc2nc(Cl)c(/C=[N+](\[O-])C(C)(C)C)cc2c1

>  <viability at 250 µM>
65.9%

$$$$
>  <COMPOUND>
Cc1ccc2nc(N(C)C)c(/C=[N+](\[O-])Cc3ccccc3)cc2c1

>  <viability at 250 µM>
< 0%

$$$$
>  <COMPOUND>
CC(C)(C)/[N+]([O-])=C/c1cc2ccccc2[nH]c1=O

>  <viability at 250 µM>
55%

$$$$

May I ask what viability at 250 µM has been recorded for Cc1ccc2[nH]c(=O)c(/C=[N+](\[O-])C(C)(C)C)cc2c1 ?
10.9%

May I ask what viability at 250 µM has been recorded for [O-]/[N+](=C\c1cc2cc(Cl)ccc2nc1Cl)Cc1ccccc1 ?
0.35%

May I ask what viability at 250 µM has been recorded for Cc1ccc2[nH]c(=O)c(/C=[N+](\[O-])Cc3ccccc3)cc2c1 ?
29.8%
